System: ECHINOCHLOA CRUS-GALLI, (L) BEAU
testDescription: Postemergence herbicidal evaluation, ECHCG (Barnyardgrass)
Assay type: in vivo
assayContext: 0.125 kg/ha, rated four to five weeks after treatment
Experimental: In the tests, seedling plants are grown in jiffy flats for about two weeks. The test compounds are dispersed in 50/50 acetone/water mixtures containing 0.5% TWEEN®20, a polyoxyethylene sorbitan monolaurate surfactant of Atlas Chemical Industries, in sufficient quantities to provide the equivalent of about 0.125 kg to 0.500 kg per hectare of active compound when applied to the plants through a spray nozzle operating at 40 psi for a predetermined time. […]

# compound, Herbicide rating (0-9) ECHCG
measured = [
    ("CCOC(=O)Cn1c(=O)n(CC(=O)OC(C)(C)C)c(=O)n(-c2ccc(F)c(N3C(=O)C4=C(CCCC4)C3=O)c2)c1=O [Compound 8]", 0.0),
    ("COC(=O)Cn1c(=O)n(C)c(=O)n(-c2cc(N3C(=O)C4=C(CCCC4)C3=O)ccc2F)c1=O [Compound 5]", 0.0),
    ("CC(C)OC(=O)Cn1c(=O)n(C)c(=O)n(-c2cc(N=c3sc(=O)n4n3CCCC4)c(F)cc2Cl)c1=O [Compound 13]", 0.0),
    ("CC(C)OC(=O)Cn1c(=O)n(C)c(=O)n(-c2cc(N3C(=O)c4cccc(F)c4C3=O)c(F)cc2Cl)c1=O [Compound 11]", 3.0),
    ("COC(=O)Cn1c(=O)n(C)c(=O)n(-c2cc(N3C(=O)C4=C(CCCC4)C3=O)c(F)cc2F)c1=O [Compound 10]", 0.0),
]

All values here come from patent EP0745599A2.
